Could you please report measured MIC for the items listed next?
# Test system: Staphylococcus aureus
# Procedure details: In vitro minimum inhibitory concentration was measured against Staphylococcus aureus smith strain.
# Format: functional
Numbers only, in µg/mL.

Compound	Tested system	MIC, µg/mL
CO/N=C(\C(=O)N[C@@H]1C(=O)N2C(C(=O)O)=C(COC(C)=O)CS[C@H]12)c1csc(N)n1 [CEFOTAXIME]	Staphylococcus aureus	2
CO/N=C(\C(=O)N[C@@H]1C(=O)N2C(C(=O)O)=C(CN3CCN(c4cc5c(cc4F)c(=O)c(C(=O)O)cn5C4CC4)CC3)CS[C@H]12)c1csc(N)n1	Staphylococcus aureus	4
CO/N=C(\C(=O)N[C@@H]1C(=O)N2C(C(=O)O)=C(CN3CCNCC3)CS[C@H]12)c1csc(N)n1	Staphylococcus aureus	4
CCN1CCN(C(=O)N[C@@H](C(=O)N[C@@H]2C(=O)N3C(C(=O)O)=C(CN4CCN(c5cc6c(cc5F)c(=O)c(C(=O)O)cn6C5CC5)CC4)CS[C@H]23)c2ccc(O)cc2)C(=O)C1=O	Staphylococcus aureus	2
CC(C)(O/N=C(\C(=O)N[C@@H]1C(=O)N2C(C(=O)O)=C(CN3CCN(c4cc5c(cc4F)c(=O)c(C(=O)O)cn5C4CC4)CC3)CS[C@H]12)c1csc(N)n1)C(=O)O	Staphylococcus aureus	8

Provide MIC for all items below, preserving their order.
1. Nc1nc(/C(=N/OCC(=O)O)C(=O)N[C@@H]2C(=O)N3C(C(=O)O)=C(CN4CCN(c5cc6c(cc5F)c(=O)c(C(=O)O)cn6C5CC5)CC4)CS[C@H]23)cs1
2. CC(=O)OCC1=C(C(=O)O)N2C(=O)[C@@H](NC(=O)C(O)c3ccccc3)[C@H]2SC1 (some centres not stated)

8
0.5

###

Could you please report measured MIC for the items listed next?
# System: Enterococcus faecalis
# Procedure details: In vitro minimum inhibitory concentration was measured against Enterococcus faecalis ATCC 29212 strain.
# Assay type: functional
Give bare numbers, in mg/L.

Reference set (2 entries):
Structure notation	MIC (mg/L)
O=C(O)c1cn(C2CC2)c2cc(N3CCNCC3)c(F)cc2c1=O	1
CCN1CCN(C(=O)N[C@@H](C(=O)N[C@@H]2C(=O)N3C(C(=O)O)=C(CN4CCN(c5cc6c(cc5F)c(=O)c(C(=O)O)cn6C5CC5)CC4)CS[C@H]23)c2ccc(O)cc2)C(=O)C1=O	16

Quick one: give measured MIC for `CO/N=C(\C(=O)N[C@@H]1C(=O)N2C(C(=O)O)=C(COC(C)=O)CS[C@H]12)c1csc(N)n1` 0.25

###

# Tested system: UniProtKB P02918
# Sequence (P02918 whole entry): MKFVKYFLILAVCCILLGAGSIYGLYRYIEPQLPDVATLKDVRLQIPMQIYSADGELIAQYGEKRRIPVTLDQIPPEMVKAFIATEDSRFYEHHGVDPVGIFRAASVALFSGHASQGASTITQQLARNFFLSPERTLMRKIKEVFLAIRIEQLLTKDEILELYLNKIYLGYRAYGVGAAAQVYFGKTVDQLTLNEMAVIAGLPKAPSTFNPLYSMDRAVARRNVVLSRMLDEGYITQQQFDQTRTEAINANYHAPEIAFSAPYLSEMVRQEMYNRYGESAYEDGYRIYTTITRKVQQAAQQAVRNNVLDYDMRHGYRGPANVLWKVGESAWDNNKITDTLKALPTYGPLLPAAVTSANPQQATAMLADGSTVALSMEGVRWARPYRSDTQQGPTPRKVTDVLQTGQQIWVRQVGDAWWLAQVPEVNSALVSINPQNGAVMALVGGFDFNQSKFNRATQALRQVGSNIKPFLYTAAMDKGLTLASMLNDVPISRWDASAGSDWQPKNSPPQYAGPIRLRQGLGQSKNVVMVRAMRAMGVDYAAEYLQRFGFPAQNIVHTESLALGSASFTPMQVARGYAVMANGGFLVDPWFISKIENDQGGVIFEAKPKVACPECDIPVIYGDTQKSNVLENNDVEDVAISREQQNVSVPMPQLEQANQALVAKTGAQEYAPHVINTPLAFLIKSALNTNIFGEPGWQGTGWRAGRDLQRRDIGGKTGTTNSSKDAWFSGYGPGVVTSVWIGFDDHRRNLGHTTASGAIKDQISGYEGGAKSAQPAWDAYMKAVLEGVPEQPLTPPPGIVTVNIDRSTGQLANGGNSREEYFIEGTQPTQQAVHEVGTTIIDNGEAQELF
# Procedure details: Affinity for penicillin binding protein 1a of Escherichia coli UB1005 (DC0) was evaluated.
# Design: unit not given here
Recorded metric: Binding affinity

Compound	Tested system	Binding affinity
CO/N=C(\C(=O)N[C@@H]1C(=O)N2C(C(=O)O)=C(CN3CCNCC3)CS[C@H]12)c1csc(N)n1	UniProtKB P02918	> 100
CO/N=C(\C(=O)N[C@@H]1C(=O)N2C(C(=O)O)=C(COC(C)=O)CS[C@H]12)c1csc(N)n1 [CEFOTAXIME]	UniProtKB P02918	0.1
O=C(O)C1=C(CN2CCN(c3cc4c(cc3F)c(=O)c(C(=O)O)cn4C3CC3)CC2)CS[C@@H]2[C@H](NC(=O)[C@H](O)c3ccccc3)C(=O)N12	UniProtKB P02918	100

Provide Binding affinity for all items below, preserving their order.
1. CCN1CCN(C(=O)N[C@@H](C(=O)N[C@@H]2C(=O)N3C(C(=O)O)=C(CN4CCN(c5cc6c(cc5F)c(=O)c(C(=O)O)cn6C5CC5)CC4)CS[C@H]23)c2ccc(O)cc2)C(=O)C1=O
2. CO/N=C(\C(=O)N[C@@H]1C(=O)N2C(C(=O)O)=C(CN3CCN(c4cc5c(cc4F)c(=O)c(C(=O)O)cn5C4CC4)CC3)CS[C@H]12)c1csc(N)n1
3. CC(C)(O/N=C(\C(=O)N[C@@H]1C(=O)N2C(C(=O)O)=C(CN3CCN(c4cc5c(cc4F)c(=O)c(C(=O)O)cn5C4CC4)CC3)CS[C@H]12)c1csc(N)n1)C(=O)O

1: > 100; 2: > 100; 3: 100

Provide Binding affinity for all items below, preserving their order.
1. Nc1nc(/C(=N/OCC(=O)O)C(=O)N[C@@H]2C(=O)N3C(C(=O)O)=C(CN4CCN(c5cc6c(cc5F)c(=O)c(C(=O)O)cn6C5CC5)CC4)CS[C@H]23)cs1
2. O=C(O)C1=C(CN2CCN(c3cc4c(cc3F)c(=O)c(C(=O)O)cn4C3CC3)CC2)CS[C@@H]2[C@H](NC(=O)C(C(=O)O)c3ccccc3)C(=O)N12 (stereo partly drawn)

> 100
> 100

###

# Tested on: Enterobacter cloacae
# Procedure details: In vitro minimum inhibitory concentration was measured against Enterobacter cloacae p99 (beta lactamase producer) strain.
# Format: functional
Could you please report measured MIC for the items listed next?
Answers are plain numbers, in µg/mL.

Molecule	Unit abbrev	MIC
Nc1nc(/C(=N/OCC(=O)O)C(=O)N[C@@H]2C(=O)N3C(C(=O)O)=C(CN4CCN(c5cc6c(cc5F)c(=O)c(C(=O)O)cn6C5CC5)CC4)CS[C@H]23)cs1	µg/mL	0.25

Provide MIC for all items below, preserving their order.
1. CC(C)(O/N=C(\C(=O)N[C@@H]1C(=O)N2C(C(=O)O)=C(CN3CCN(c4cc5c(cc4F)c(=O)c(C(=O)O)cn5C4CC4)CC3)CS[C@H]12)c1csc(N)n1)C(=O)O
2. CO/N=C(\C(=O)N[C@@H]1C(=O)N2C(C(=O)O)=C(COC(C)=O)CS[C@H]12)c1csc(N)n1
3. CO/N=C(\C(=O)N[C@@H]1C(=O)N2C(C(=O)O)=C(CN3CCNCC3)CS[C@H]12)c1csc(N)n1
4. O=C(O)C1=C(CN2CCN(c3cc4c(cc3F)c(=O)c(C(=O)O)cn4C3CC3)CC2)CS[C@@H]2[C@H](NC(=O)C(C(=O)O)c3ccccc3)C(=O)N12 (stereo partly specified)
5. O=C(O)C1=C(CN2CCN(c3cc4c(cc3F)c(=O)c(C(=O)O)cn4C3CC3)CC2)CS[C@@H]2[C@H](NC(=O)[C@H](O)c3ccccc3)C(=O)N12

1. 0.5
2. 64
3. 128
4. 0.063
5. 0.031

###

# Tested on: Proteus vulgaris
# Procedure details: In vitro minimum inhibitory concentration was measured against Proteus vulgaris 1028BC (beta lactamase producer) strain.
# Assay type: functional
Recorded metric: MIC

Compound	Value reported
CC(=O)OCC1=C(C(=O)O)N2C(=O)[C@@H](NC(=O)C(O)c3ccccc3)[C@H]2SC1 (stereo partly drawn)	> 128 µg/mL
CO/N=C(\C(=O)N[C@@H]1C(=O)N2C(C(=O)O)=C(CN3CCN(c4cc5c(cc4F)c(=O)c(C(=O)O)cn5C4CC4)CC3)CS[C@H]12)c1csc(N)n1	0.25 µg/mL
CCN1CCN(C(=O)N[C@@H](C(=O)N[C@@H]2C(=O)N3C(C(=O)O)=C(CN4CCN(c5cc6c(cc5F)c(=O)c(C(=O)O)cn6C5CC5)CC4)CS[C@H]23)c2ccc(O)cc2)C(=O)C1=O	0.063 µg/mL
CC(C)(O/N=C(\C(=O)N[C@@H]1C(=O)N2C(C(=O)O)=C(CN3CCN(c4cc5c(cc4F)c(=O)c(C(=O)O)cn5C4CC4)CC3)CS[C@H]12)c1csc(N)n1)C(=O)O	1 µg/mL
CO/N=C(\C(=O)N[C@@H]1C(=O)N2C(C(=O)O)=C(CN3CCNCC3)CS[C@H]12)c1csc(N)n1	> 128 µg/mL

Provide MIC for all items below, preserving their order.
1. Nc1nc(/C(=N/OCC(=O)O)C(=O)N[C@@H]2C(=O)N3C(C(=O)O)=C(CN4CCN(c5cc6c(cc5F)c(=O)c(C(=O)O)cn6C5CC5)CC4)CS[C@H]23)cs1
2. CO/N=C(\C(=O)N[C@@H]1C(=O)N2C(C(=O)O)=C(COC(C)=O)CS[C@H]12)c1csc(N)n1
3. O=C(O)C1=C(CN2CCN(c3cc4c(cc3F)c(=O)c(C(=O)O)cn4C3CC3)CC2)CS[C@@H]2[C@H](NC(=O)[C@H](O)c3ccccc3)C(=O)N12

1 µg/mL
> 128 µg/mL
0.063 µg/mL

###

Could you please report measured half-life for the items listed next?
# Procedure details: Half life was measured as degradation by HPLC analysis.
# Type: ADME
Numbers only, in h.

Reference set (2 entries):
Compound	half-life [h]
CCN1CCN(C(=O)N[C@@H](C(=O)N[C@@H]2C(=O)N3C(C(=O)O)=C(CN4CCN(c5cc6c(cc5F)c(=O)c(C(=O)O)cn6C5CC5)CC4)CS[C@H]23)c2ccc(O)cc2)C(=O)C1=O	60
CO/N=C(\C(=O)N[C@@H]1C(=O)N2C(C(=O)O)=C(CN3CCN(c4cc5c(cc4F)c(=O)c(C(=O)O)cn5C4CC4)CC3)CS[C@H]12)c1csc(N)n1	144

Then this compound:
Quick one: give measured half-life for O=C(O)C1=C(CN2CCN(c3cc4c(cc3F)c(=O)c(C(=O)O)cn4C3CC3)CC2)CS[C@@H]2[C@H](NC(=O)C(C(=O)O)c3ccccc3)C(=O)N12 (stereo partly drawn) 228
